- METHOD DESCRIPTION: Half life in Wistar rat at 2 mg/kg, iv by LC-MS/MS analysis
- Assay type: ADME, organism-based
- CONDITION PARAMETERS: in vivo
ENDPOINT: half-life (h)
Your answer should be a plain number; it is taken to be in h.

Example molecules with recorded half-life:
[
  {
    "MOLECULE": "Cc1nc(Nc2ncc(C(=O)Nc3c(C)cccc3Cl)s2)cc(N2CCN(CCSc3cccc4c3C(=O)N(C3CCC(=O)NC3=O)C4=O)CC2)n1 (stereo not drawn)",
    "U": "h",
    "MEASURED": 4.23
  },
  {
    "MOLECULE": "Cc1nc(Nc2ncc(C(=O)Nc3c(C)cccc3Cl)s2)cc(N2CCN(C(=O)CCOCCOCCNc3cccc4c3C(=O)N(C3CCC(=O)NC3=O)C4=O)CC2)n1 (stereo not drawn)",
    "U": "h",
    "MEASURED": 0.62
  }
]

Now look at this one.
Lab book: half-life of Cc1nc(Nc2ncc(C(=O)Nc3c(C)cccc3Cl)s2)cc(N2CCN(CCCCNc3cccc4c3C(=O)N(C3CCC(=O)NC3=O)C4=O)CC2)n1 (stereo not drawn) noted as 1.93
